- measurement notes: Inhibition of LPS-induced nitric oxide production in […] BV-2 cells at 20 uM measured after 24 hrs by Griess reagent assay relative to control
- Format: functional, Mus musculus
- condition context: BV-2, 24 h
Decide using inhibition at 20 µM: a value greater than or equal to 40% is yes (1), a smaller one is no (0).

Would you please look over these solved cases?
structure as smiles: O=C(CCN1CCOCC1)c1ccc(F)cc1
label class: no (0)

structure as smiles: O=C(CCN1CCOCC1)c1ccc(I)cc1
label class: yes (1)

structure as smiles: O=C(CCN1CCOCC1)c1cccc(C(F)(F)F)c1
label class: yes (1)

structure as smiles: O=C(CCN1CCOCC1)c1ccc([N+](=O)[O-])cc1
label class: yes (1)

Record O=C(CCN1CCOCC1)c1ccc(Br)cc1 ; criterion: inhibition at 20 µM no lower than 40%. Met? yes (1)

What do you have for O=C(Cc1ccccc1)CN1CCOCC1 ? no (0)

What do you have for CN(C)c1ccc(C(=O)CCN2CCOCC2)cc1 ? no (0)

What do you have for COc1ccc(C(=O)CCN2CCOCC2)cc1 ? no (0)

What do you have for Cc1ccc(C(=O)CCN2CCOCC2)cc1 ? no (0)
